System: MS751 cells
Experiment: MTT cell proliferation assay, MS751 cells
Format: cell-based, human
Details: Homo sapiens, MS751, MS751 cells, approximately 64-72 hours incubation
List of IC50 values.

molecule: Nc1ccc(/C=C/C(=O)NCc2cc3cc(-c4ccc(C(=O)N5CCC(F)(F)CC5)cc4)cc(-c4ccc(F)cc4)c3o2)cn1
unitsSymbol: µM
IC50: 0.05

molecule: CC1(F)CCN(C(=O)c2ccc(-c3cc(-c4ccc(F)cc4)c4oc(CNC(=O)/C=C/c5ccc(N)nc5)cc4c3)cc2)C1 (racemic)
unitsSymbol: µM
IC50: 0.03

molecule: C[C@]1(F)CCN(C(=O)c2ccc(-c3cc(-c4ccc(F)cc4)c4oc(CNC(=O)/C=C/c5ccc(N)nc5)cc4c3)cc2)C1
unitsSymbol: µM
IC50: 0.008

molecule: C[C@@]1(F)CCN(C(=O)c2ccc(-c3cc(-c4ccc(F)cc4)c4oc(CNC(=O)/C=C/c5ccc(N)nc5)cc4c3)cc2)C1
unitsSymbol: µM
IC50: 0.09
